Property: kon; scope: individual binders
target: T1, biotinylated synthetic human Amyloid beta 1-42 peptide (human, UniProt P05067 672-713, biotinylated (N-terminal biotin in Example 4)); experiment: SPR (ProteOn); biotinylated peptide on streptavidin chip, scFv in solution
T1 construct: domain: Amyloid beta 1-42 peptide; Numbers 1-42 count on the Amyloid beta peptide, not on APP; also called biotinylated human Amyloid beta 1-42; N-terminal biotin Abeta 1-42
T1 sequence (P05067 672-713 limits assumed): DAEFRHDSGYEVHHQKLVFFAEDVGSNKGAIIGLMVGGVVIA
Please state the figure in M⁻¹ s⁻¹; there is no need to write the unit.

Please review the following examples before continuing.
Abet0383 scFv (scFv, V domains shown, not shown: small tags and cut ends, Purified scFv expressed in E. coli) VH: EVQLLESGGGLVQPGGSLKLSCAASGFTFDWYPMWWVRQAPGKRLEWISVIGADNAKIAYADSVKGRFTISRDNSKNTLYLQMNSLRAEDTAVYYCAREWMGHSRPYYYYGMDVWGQGTPVTVSS VL: SYELTQPPSVSVSPGQTASITCSGHNLGDKFASWYQQKPGQSPVLVIYRDDKRPSGIPERFSASNSGHTATLTISGTQATDEADYYCSSQDTVTRVFGGGTKLTVL : 181000
Abet0322b scFv (scFv, V domains shown, not shown: small tags and cut ends, Purified scFv expressed in E. coli) VH: EVQLLESGGGLVQPGGSLRLSCAASNEEFQYNPMWWVRQAPGKGLEWVSVIGSSGGATVYADAVKGRFTISRDNSENTLYLQMNSLRAEDTAVYYCAREWMDHSRPYYYYGMDVWGQGTLVTVSS VL: SYELTQPPSVSVSPGQTASITCSGHNLGDKFASWYQQKPGQSPVLVIYRDDKRPSEIPERFSASNSGHTATLTISGTQATDEADYYCSSQDTVTRVFGGGTKLTVL : 203000

Record request: kon value, item Abet0328 scFv (scFv, V domains shown, not shown: small tags and cut ends, Purified scFv expressed in E. coli) VH: EVQLLESGGGLVQPGGSLRLSCAASRDPFKADTMWWVRQAPRKRLEWVSVIGAHTTNSAYADSVKGRFTISRDNSKNTLYLQMNSLRAEDTAVYYCAREWMDRSRPYYYYGMDVWGQGTLVTVSS VL: SYELTQPPSVSVSPGQTVSITCSGRNLEDKFASWYQQKPGQSPVLVIYRDDKRPSGVPERFSASNSGHTATLTISGTQATDEADYYCSSQDTVTRVFGGGTKLTVL 141000
